- Test system: S1 zinc finger array (six-finger ATF) (synthetic construct)
- assay-details: EMSA
- measurement-setup: ZBA (10 mM Tris pH 8.5, 90 mM KCl, 1 mM MgCl2, 100 uM ZnCl2), 0.05% NP-40, 0.1 mg/mL BSA, glycerol, room temperature 1.5 h; apparent KD, average of at least …
recorded-endpoint: Kd (nM)

• CCTCTTCGCTATTACGCCAGCCATGCGTAGGGAGCCGCGGAACGTTCGATCGTACTCGAGTCAGGGTG (double strand) [S1 EMSA target] = 3
